Where these numbers come from: PubChem BioAssay AID651630

# Test system: TAG
# assay summary: TAG lipid buildup inhibition with viability readout – cell-based, panel, Nile Red and DAPI fluorescence, H9c2, dose response (AID 651630);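 further: cells exposed to compound overnight before fixation and staining; hits lower the Nile Red lipid signal and are scored as TAG inhibitors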
# assay conditions: H9c2 cells, Nile Red TAG fluorescence, oleic acid, mean of runs
The source made the active and inactive calls.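 How the source made its calls: active means lipid-stain IC50 at or below a set limit, with nuclear-stain toxicity IC50 at least five times higher; inactive means the rest.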
Outcomes: active, inactive

{"compound": "COc1ccc(C#Cc2ccc3c(c2)O[C@@H](CN(C)C(=O)Nc2cccc(OC)c2)[C@H](C)CN([C@@H](C)CO)S3(=O)=O)cc1", "tested on": "TAG", "group": "active"}
{"compound": "O=C(CSc1nc2ccc(Nc3nc(N4CCOCC4)nc(N4CCOCC4)n3)cc2s1)NCc1ccco1", "tested on": "TAG", "group": "active"}
{"compound": "COc1ccc(C(=O)Nc2sc3c(c2C(=O)NCc2ccco2)CCCC3)cc1OC", "tested on": "TAG", "group": "inactive"}
{"compound": "COC(=O)C1=C(c2ccc(OCc3ccccc3)cc2)C[C@@H]2CC[C@H]1N2C(=O)NCc1ccc(C(C)(C)C)cc1", "tested on": "TAG", "group": "inactive"}
{"compound": "Cc1ccc(CC2(OCCN(C)C)CCC(C(C)(C)C)CC2)cc1 (stereo not drawn)", "tested on": "TAG", "group": "inactive"}
{"compound": "CC(C)c1ccc(NC(=O)Nc2nc(C(N)C3CCCCC3)cs2)cc1 (stereo not drawn)", "tested on": "TAG", "group": "active"}
{"compound": "COc1ccc2[nH]c(C)c(CCNCc3cn(C)c4ccccc34)c2c1", "tested on": "TAG", "group": "active"}
{"compound": "O=C(N/N=C/c1ccc2c(c1)OCO2)c1cc(-c2ccncc2)nc2ccccc12", "tested on": "TAG", "group": "active"}
{"compound": "CCN1CCN(Cc2ccc(NC(=O)c3cc(NC(=O)c4cncc(-c5cccs5)c4)cc(OC)c3)cc2C(F)(F)F)CC1", "tested on": "TAG", "group": "active"}
{"compound": "Cc1ccc(-n2cc(CNCCCn3cccn3)c(-c3cccc(C)c3)n2)cc1", "tested on": "TAG", "group": "inactive"}
{"compound": "Cc1cc(N/N=C/c2ccc(F)cc2)nc(-n2nc(C)cc2C)n1", "tested on": "TAG", "group": "inactive"}
{"compound": "COc1ccc(N=C2C(=Nc3ccc(OC)cc3)N(c3ccc(OC)cc3)C(=S)N2C(=O)c2ccc(OC)cc2)cc1", "tested on": "TAG", "group": "active"}
{"compound": "C#CCN(C[C@H]1[C@H](OC(=O)NCC2CCCCC2)[C@H](OC(=O)NCC2CCCCC2)C[C@@H](C(=O)OC)[C@H]1C(=O)OC)S(=O)(=O)c1ccc(C)cc1", "tested on": "TAG", "group": "active"}
{"compound": "CCCCOc1ccc(CSC2=NCCN2)cc1[N+](=O)[O-]", "tested on": "TAG", "group": "inactive"}
{"compound": "C=CCC[C@@H](Cc1ccc(F)cc1)C(=O)OC[C@@H](Cc1c[nH]c2ccccc12)NC(=O)[C@H](CC=C)CC(=O)N(CCO)Cc1ccccc1", "tested on": "TAG", "group": "active"}
{"compound": "Cc1cc(NC(=O)CSc2nc(-c3cccs3)nc3ccccc23)no1", "tested on": "TAG", "group": "inactive"}
{"compound": "COc1ccc([C@H]2C[C@H](O)[C@@H](n3cc(-c4ccc(F)cc4)nn3)CN2Cc2cccs2)cc1", "tested on": "TAG", "group": "inactive"}
{"compound": "O=C(C[C@H]1C[C@H](C(=O)N2CCCCC2)[C@@]2(CCc3ccccc3)c3[nH]c4ccc(Cl)cc4c3CCN2C1=O)NCc1cccc(C(F)(F)F)c1", "tested on": "TAG", "group": "active"}
